# Target: T1, biotinylated native human ApoC3 (human, UniProt P02656 21-99, biotinylated (site not stated))
# T1 construct: also called biotinylated human ApoC3
# T1 sequence (P02656 21-99): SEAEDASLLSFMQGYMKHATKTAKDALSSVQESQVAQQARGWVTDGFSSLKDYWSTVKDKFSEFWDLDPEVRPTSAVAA
# Protocol notes: SPR, IgG1 over biotinylated ApoC3 on SA chip
Reported metric: KD pH5.5/KD pH7.4
Enter a number only.

Sample records with KD pH5.5/KD pH7.4:
| Binder | Reported metric | Result number |
| --- | --- | --- |
| 5E5WT human IgG1 (antibody, V domains shown) VH: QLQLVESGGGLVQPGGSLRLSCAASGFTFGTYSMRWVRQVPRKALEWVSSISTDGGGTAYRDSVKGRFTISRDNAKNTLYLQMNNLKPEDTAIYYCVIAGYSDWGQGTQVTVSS VL: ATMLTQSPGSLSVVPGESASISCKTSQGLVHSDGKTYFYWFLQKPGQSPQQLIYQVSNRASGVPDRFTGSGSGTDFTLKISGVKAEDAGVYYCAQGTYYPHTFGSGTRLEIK | KD pH5.5/KD pH7.4 | 0.97 |
| mAb7 (antibody, V domains shown, Produced as full length IgG1 (kappa) in ExpiCHO-S cells; also called humanized anti-ApoC3 antibody mAb7) VH: QLVESGGGLVQPGGSLRLSCAASGFTFSTYSMRWVRQAPGKGLEWVSSIHTGGGGTAYRDSVKGRFTISRDNAKNTLYLQMNNLRAEDTAIYYCVIAGYSDWGQGTLVTVSS VL: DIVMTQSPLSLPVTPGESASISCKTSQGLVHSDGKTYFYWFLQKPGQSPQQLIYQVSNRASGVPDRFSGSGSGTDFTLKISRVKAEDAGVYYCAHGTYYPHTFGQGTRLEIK | KD pH5.5/KD pH7.4 | 52.7 |

**Query** Hello, please tell me recorded KD pH5.5/KD pH7.4 for this one: mAb11 (antibody, IgG1, V domains shown, Produced as full length IgG1 (kappa) in ExpiCHO-S cells; also called humanized anti-ApoC3 antibody mAb11) VH: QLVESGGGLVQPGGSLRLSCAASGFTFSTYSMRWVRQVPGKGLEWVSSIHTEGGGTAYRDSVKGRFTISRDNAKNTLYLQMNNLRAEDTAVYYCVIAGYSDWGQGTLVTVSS VL: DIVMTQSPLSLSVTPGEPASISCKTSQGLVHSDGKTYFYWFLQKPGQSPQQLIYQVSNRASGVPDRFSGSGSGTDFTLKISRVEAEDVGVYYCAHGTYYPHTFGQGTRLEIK
**Result** 1.91

**Query** Fill in KD pH5.5/KD pH7.4 for record mAb9 (antibody, IgG1, V domains shown, Produced as full length IgG1 (kappa) in ExpiCHO-S cells; also called humanized anti-ApoC3 antibody mAb9) VH: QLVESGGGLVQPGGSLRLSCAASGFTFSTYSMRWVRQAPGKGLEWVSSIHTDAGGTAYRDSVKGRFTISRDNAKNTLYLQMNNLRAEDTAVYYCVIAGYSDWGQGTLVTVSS VL: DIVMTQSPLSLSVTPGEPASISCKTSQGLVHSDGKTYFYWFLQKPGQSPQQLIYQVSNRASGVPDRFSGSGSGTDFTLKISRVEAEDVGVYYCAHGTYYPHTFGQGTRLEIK
**Result** 5.09

**Query** Return value of KD pH5.5/KD pH7.4 for input mAb12 (antibody, IgG1, V domains shown, Produced as full length IgG1 (kappa) in ExpiCHO-S cells; also called humanized anti-ApoC3 antibody mAb12) VH: QLVESGGGLVQPGGSLRLSCAASGFTFSTYSMRWVRQVPGKGLEWVSSIHTDAGGTAYRDSVKGRFTISRDNAKNTLYLQMNSLRPEDTAIYYCVIAGYSDWGQGTLVTVSS VL: DIVMTQSPLSLSVTPGEPASISCKTSQGLVHSDGKTYFYWFLQKPGQSPQQLIYQVSNRASGVPDRFTGSGSGTDFTLKISRVKAEDVGVYYCAHGTYYPHTFGQGTRLEIK , no commentary.
**Result** 2.12

**Query** Please give the documented KD pH5.5/KD pH7.4 of mAb6 (antibody, IgG1, V domains shown, Produced as full length IgG1 (kappa) in ExpiCHO-S cells; also called humanized anti-ApoC3 antibody mAb6) VH: QLVESGGGLVQPGGSLRLSCAASGFTFGTYSMRWVRQAPGKGLEWVSSIHTEGGGTAYRDSVKGRFTISRDNAKNTLYLQMNSLRAEDTAVYYCVIAGYSDWGQGTLVTVSS VL: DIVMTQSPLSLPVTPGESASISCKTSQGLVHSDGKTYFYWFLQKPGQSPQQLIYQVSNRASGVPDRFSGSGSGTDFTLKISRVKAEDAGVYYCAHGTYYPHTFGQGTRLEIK
**Result** 5.79

**Query** Indicate its recorded KD pH5.5/KD pH7.4; the binder in question is mAb5 (antibody, IgG1, V domains shown, Produced as full length IgG1 (kappa) in ExpiCHO-S cells; also called humanized anti-ApoC3 antibody mAb5) VH: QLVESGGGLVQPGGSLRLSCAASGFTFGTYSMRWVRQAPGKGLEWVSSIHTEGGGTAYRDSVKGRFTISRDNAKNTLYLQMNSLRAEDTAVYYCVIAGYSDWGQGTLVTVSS VL: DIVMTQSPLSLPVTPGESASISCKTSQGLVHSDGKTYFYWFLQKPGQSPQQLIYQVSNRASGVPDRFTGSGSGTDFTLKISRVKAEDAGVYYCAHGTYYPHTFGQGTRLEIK
**Result** 2.33
